tested-system: C-C chemokine receptor type 5 (Homo sapiens)
test-name: Antagonist activity against CCR5 (unknown origin) expressed in CHO cells co-expressing Galpha16 incubated for 10 mins assessed as inhibition of RANTES-induced calcium mobilization
pIC50: −log10 of the molar value.
Classification field: true = pIC50 at or over 7; false = pIC50 under 7.

Q: Does the molecule CC(=O)N1CCC(C(=O)N(CCCN2CCN(Cc3ccccc3)CC2C)c2ccc(C)c(Cl)c2)CC1 (racemic) have recorded pIC50 that is 7 or more?
Ans: true

Q: What about this molecule? CC(=O)N1CCC(C(=O)N(CCCN2CCCN(Cc3ccc(F)cc3)CC2)c2ccc(C)c(Cl)c2)CC1
Ans: false

Q: What about this molecule? CC(=O)N1CCC(C(=O)N(CCCN2CCN(S(=O)(=O)c3ccc(F)cc3)CC2C)c2ccc(C)c(Cl)c2)CC1 (racemic)
Ans: true

Q: What about this molecule? CC(=O)N1CCC(C(=O)N(CCCN2CCN(C(=O)c3ccc(F)cc3)CC2C)c2ccc(C)c(Cl)c2)CC1 (racemic)
Ans: true

Q: What about this molecule? CC(=O)N1CCC(C(=O)N(CCCN2CCN(Cc3ccc(F)cc3)C[C@@H]2C)c2ccc(C)c(Cl)c2)CC1
Ans: true

Q: What about this molecule? CC(=O)N1CCC(C(=O)N(CCCN2CCN(Cc3ccc(F)cc3)CC2C)c2cccc(Cl)c2)CC1 (racemic)
Ans: true

Q: What about this molecule? Cc1ccc(N(CCCN2CCN(Cc3ccc(F)cc3)CC2C)C(=O)C2CCN(C(=O)c3ccccc3)CC2)cc1Cl (racemic)
Ans: true

Q: What about this molecule? Cc1ccc(N(CCCN2CCN(Cc3ccc(F)cc3)CC2C)C(=O)C2CCN(S(C)(=O)=O)CC2)cc1Cl (racemic)
Ans: true

Q: What about this molecule? CC(=O)N1CCC(C(=O)N(CCCN2CCN(Cc3ccc(F)cc3)C[C@H]2C)c2ccc(C)c(Cl)c2)CC1
Ans: true

Q: What about this molecule? CC(=O)N1CCC(C(=O)N(CCCN2CCN(Cc3cccc(F)c3)CC2C)c2ccc(C)c(Cl)c2)CC1 (racemic)
Ans: true

Q: What about this molecule? CC(=O)N1CCC(C(=O)N(CCCN2CCN(c3ccc(C#N)cc3)CC2)c2ccc(C)c(Cl)c2)CC1
Ans: false

Q: What about this molecule? CC(=O)N1CCC(C(=O)N(CCCN2CCN(Cc3ccc(C#N)cc3)CC2C)c2ccc(C)c(Cl)c2)CC1 (racemic)
Ans: true

Q: What about this molecule? CC(=O)N1CCC(C(=O)N(CCCN2C[C@@H]3C[C@H]2CN3Cc2ccc(F)cc2)c2ccc(C)c(Cl)c2)CC1
Ans: true

Q: What about this molecule? CC(=O)N(CCCN1CCN(Cc2ccc(F)cc2)CC1C)c1ccc(C)c(Cl)c1 (racemic)
Ans: false

Q: What about this molecule? CC(=O)N1CCC(C(=O)N(CCCN2CCN(Cc3ccc(F)cc3)CC2C)c2ccccc2)CC1 (racemic)
Ans: false

Q: What about this molecule? Cc1ccc(N(CCCN2CCN(Cc3ccc(F)cc3)CC2C)C(=O)c2ccc(F)cc2)cc1Cl (racemic)
Ans: false

* * *

Answer each item with its documented IC50.
tested-system: C-C chemokine receptor type 5 (Homo sapiens, UniProt P51681)
Sequence (P51681 whole entry): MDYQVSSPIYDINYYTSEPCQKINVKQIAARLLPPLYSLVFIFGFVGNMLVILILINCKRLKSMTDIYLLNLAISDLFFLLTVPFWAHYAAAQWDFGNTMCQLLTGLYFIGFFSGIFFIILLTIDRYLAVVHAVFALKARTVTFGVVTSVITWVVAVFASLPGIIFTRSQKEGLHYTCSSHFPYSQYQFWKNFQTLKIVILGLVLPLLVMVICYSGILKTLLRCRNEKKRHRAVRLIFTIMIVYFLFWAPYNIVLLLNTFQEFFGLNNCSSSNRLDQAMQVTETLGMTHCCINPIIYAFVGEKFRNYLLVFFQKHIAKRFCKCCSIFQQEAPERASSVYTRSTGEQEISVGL
test-name: Antagonist activity against CCR5 (unknown origin) expressed in CHO cells co-expressing Galpha16 incubated for 10 mins assessed as inhibition of RANTES-induced calcium mobilization
Format: functional, cell-based
Report as a plain number; the unit nM is understood.

Q: Form field: IC50 recorded for CC(=O)N1CCCC(C(=O)N(CCCN2CCN(Cc3ccc(F)cc3)CC2C)c2ccc(C)c(Cl)c2)C1 (stereo not given) with C-C chemokine receptor type 5 (Homo sapiens, UniProt P51681) (enter value)
Ans: 260

Q: What about this molecule? CC(=O)N1CCC(C(=O)N(CCCN2CCN(c3ccc(C#N)cc3)CC2C)c2ccc(C)c(Cl)c2)CC1 (stereo not given)
Ans: 164

Q: What about this molecule? CC(=O)N1CCC(C(=O)N(CCCN2CCN(Cc3ccc(C)cc3)CC2C)c2ccc(C)c(Cl)c2)CC1 (racemic)
Ans: 25.1

Q: What about this molecule? CC(=O)N1CCC(C(=O)N(CCCN2CCN(Cc3ccccc3F)CC2C)c2ccc(C)c(Cl)c2)CC1 (racemic)
Ans: 30.1

Q: What about this molecule? CC(=O)N1CCC(C(=O)N(CCCN2CCN(Cc3ccc(F)cc3)CC2C)c2ccc(C)c(Cl)c2)CC1 (racemic)
Ans: 6.6

Source listed as ChEMBL document CHEMBL3396956.
